Here the recorded growth is given for each entry.
System: HCC-2998 colon
experimental.protocol: NCI-60 one-dose screen, 48 h (100 = growth as untreated, 0 = no growth, -100 = all killed)
experimental.context: 10 µM unless noted
The panel holds about 83,000 compounds, 20% with a hit somewhere; the sample as a whole holds those more often.
// units = %; emit number, no label

Illustrative cases are given below, each with its answer.
COc1ccc(-c2nc3cc(Cl)c(Cl)cc3n2CC(=O)N=Nc2c(O)[nH]c3ccc(OC)cc23)cc1    52.8
CC(=O)C1=C(C)NC(NNC(N)=S)=NC1c1ccccc1 (stereo not given)    103
CCCCCc1ccc(S(=O)(=O)Nc2cccc(-c3csc(NC(=O)CCCCCN4CCN(CCO)CC4)n3)c2)cc1    41.5
N=c1c2cc(-c3ccccc3)oc2ncn1/N=C/c1ccc(Br)cc1    100

// query Supply growth value. Item: Cc1c(F)cc(C(N)=O)cc1NCC(=O)Nc1ccc([N+](=O)[O-])cc1
// result 105

###

System: RXF 393 renal
experimental.protocol: NCI-60 one-dose screen, 48 h (100 = growth as untreated, 0 = no growth, -100 = all killed)
experimental.context: 10 µM unless noted
This is part of a sample that, as a whole, favours compounds with a hit. Of some 83,000 tested, about 20% had one in any assay.
Here the recorded growth is given for each entry.
// units = %; emit number, no label

CNC(=O)c1cc(Oc2ccc3nc(NC(=O)c4ccc(N5CCOCC5)c(C(F)(F)F)c4)sc3c2)ccn1    -31.3

Next molecule, growth to be filled in.
// query Supply growth value. Item: COc1ccc2[nH]cc(/C=N/Nc3nc4ccccc4s3)c2c1
// result 60.8

###

System: RXF 393 renal
experimental.protocol: NCI-60 one-dose screen, 48 h
experimental.context: 10 µM unless noted
About 83,000 compounds went through this panel and 20% of them were active in at least one assay; those are over-represented in the sample as a whole. Activity calls are given as the source filed them. How the source made its calls: active means growth percent below 10; inactive means the rest.
Would you mind answering with one of these outcomes? active, inactive

CC1=N[C@@H]2CN(C(=O)OC(C)(C)C)C[C@@H]2n2c1cc1ccccc1c2=O    inactive

Now look at this one.
// query Test call, this compound: O=C(O)c1cn(C2CC2)c2cc(N3CCN(C(=O)CN4C(=O)CSC4=O)CC3)c(F)cc2c1=O
// result inactive

###

Tested on: RXF 393 renal
experimental.protocol: NCI-60 one-dose screen, 48 h (100 = growth as untreated, 0 = no growth, -100 = all killed)
experimental.context: 10 µM unless noted
About 83,000 compounds went through this panel and 20% of them were active in at least one assay; those are over-represented in the sample as a whole.
Rule: growth under 70% gives rule not met, otherwise rule met.

Check out these entries, answers already filled in.
CCCCNNC(=O)c1ccc(-c2cccc(F)c2F)cc1    rule not met
Cc1cc(-c2ccc(Cl)cc2)n(Cc2nnc(SCC(=O)Nc3ccc(S(N)(=O)=O)cc3)n2C2CCCCC2)n1    rule met
COc1ccc(OC)c(-c2nc(SCC(=O)c3ccc(Br)cc3)nc(Nc3ccc(S(N)(=O)=O)cc3)c2C#N)c1    rule not met

// query Say whether Cc1cc(C)cc(C(=O)Nc2cccc(C#Cc3cccc4[nH]nc(N)c34)c2)c1 shows growth of 70% or more.
// result rule not met

// query Say whether C=C1CC[C@@H]2[C@]3(C)COC(c4ccccc4)O[C@@H]3CC[C@@]2(C)[C@@H]1C/C=C1/C(=O)OC[C@H]1O (stereo partly drawn) shows growth of 70% or more.
// result rule met

// query Say whether O=S(=O)(NCCNc1nccc(-n2cnc3ccccc32)n1)c1ccc(Br)cc1 shows growth of 70% or more.
// result rule met

// query Say whether O=C(Nc1cccc(Cl)c1)Nc1nc2ccc([N+](=O)[O-])cc2o1 shows growth of 70% or more.
// result rule not met
